Reported shrunken log2 fold change values are given for each entry in this list.
System: Escherichia coli TOP10
protocol_notes: shrunken log2 fold change of peptide-encoding DNA abundance (4.5 h post-induction vs induction); higher = less antimicrobial activity (less host growth inhibition)
condition_summary: time post-induction: 4.5 h; library: site-saturation at positions 5, 18, 19, 20
Keep it simple and answer with nothing but the number.

chain: RRIRYRPPRLPRPRPRPAYIPRP
endpoint_result: -0.00172

Let's switch to this sequence now.
Prompt: Please tell me: shrunken log2 fold change of RRIRRRPPRLPRPRPRPYTEPRP , system Escherichia coli TOP10?
Response: -0.452

###

Tested on: Escherichia coli TOP10
protocol_notes: shrunken log2 fold change of peptide-encoding DNA abundance (4.5 h post-induction vs induction); higher = less antimicrobial activity (less host growth inhibition)
condition_summary: time post-induction: 4.5 h; library: site-saturation at positions 5, 18, 19, 20
Reported shrunken log2 fold change values are given for each entry in this list.
Keep it simple and answer with nothing but the number.

Known results for sequences:
chain: RRIRYRPPRLPRPRPRPEMNPRP
endpoint_result: -0.0274
//
chain: RRIRLRPPRLPRPRPRPMWAPRP
endpoint_result: 0.0661
//
chain: RRIRRRPPRLPRPRPRPEYLPRP
endpoint_result: -0.0446
//
chain: RRIRCRPPRLPRPRPRPVYHPRP
endpoint_result: -0.53
//
chain: RRIRNRPPRLPRPRPRPFHHPRP
endpoint_result: -0.27
//
chain: RRIRRRPPRLPRPRPRPKSYPRP
endpoint_result: 0.171
//
chain: RRIRGRPPRLPRPRPRPPNNPRP
endpoint_result: 0.835
//
chain: RRIRRRPPRLPRPRPRPAMDPRP
endpoint_result: 0.0975
//
chain: RRIRNRPPRLPRPRPRPRDYPRP
endpoint_result: -0.0159
//
chain: RRIRNRPPRLPRPRPRPMAEPRP
endpoint_result: 0.0284

Prompt: Please tell me: shrunken log2 fold change of RRIRNRPPRLPRPRPRPVLHPRP , system Escherichia coli TOP10?;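 note: peptides expressed intracellularly from a pBAD plasmid library in pooled LB shake-flask culture, induced with 0.3% L-arabinose, DNA abundance read by NGS, three biological replicates, DESeq2 with apeglm shrinkage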
Response: -0.00264

Prompt: Also check RRIRRRPPRLPRPRPRPATPPRP
Response: 0.783

Prompt: Also check RRIRKRPPRLPRPRPRPWLQPRP
Response: -0.0256

Prompt: Also check RRIRWRPPRLPRPRPRPCMFPRP
Response: -0.244

Prompt: Also check RRIRVRPPRLPRPRPRPANHPRP
Response: -0.0489
